- assaySystem: NEK3 (human) (UniProt P51956)
- Sequence (P51956 whole entry, looked up): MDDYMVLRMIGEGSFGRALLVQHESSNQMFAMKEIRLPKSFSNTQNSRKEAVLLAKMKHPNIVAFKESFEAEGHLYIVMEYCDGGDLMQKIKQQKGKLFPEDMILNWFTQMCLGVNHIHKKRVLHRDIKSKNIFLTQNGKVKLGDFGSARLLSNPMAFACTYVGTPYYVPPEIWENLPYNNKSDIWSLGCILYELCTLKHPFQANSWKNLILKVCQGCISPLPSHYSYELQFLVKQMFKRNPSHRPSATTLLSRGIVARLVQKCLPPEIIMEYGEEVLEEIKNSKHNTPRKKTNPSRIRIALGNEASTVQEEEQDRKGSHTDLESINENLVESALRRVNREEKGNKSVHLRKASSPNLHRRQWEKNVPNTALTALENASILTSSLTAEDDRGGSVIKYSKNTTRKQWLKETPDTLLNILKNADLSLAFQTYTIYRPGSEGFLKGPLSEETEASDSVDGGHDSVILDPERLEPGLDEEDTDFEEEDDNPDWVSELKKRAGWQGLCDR
- testProtocol: KINOMEscan competition binding
- protocolConditions: compound 10.0 µM

molSmiles: C=CC(=O)Nc1cc(NC(=O)c2ccc(C)c(NC(=O)c3ccno3)c2)cc(C(F)(F)F)c1
kinase still bound, per cent of control (%): 88
--
molSmiles: O=C(O)c1ccc(Nc2ncc3c(n2)-c2ccc(Cl)cc2C(c2c(F)cccc2F)=NC3)cc1
kinase still bound, per cent of control (%): 100
--
molSmiles: Cc1ccc2nc(NCCN)c3ncc(C)n3c2c1
kinase still bound, per cent of control (%): 100
--
molSmiles: CCC(=O)N1CCN(c2ccc(-n3c(=O)ccc4cnc5ccc(-c6cnc7ccccc7c6)cc5c43)cc2C(F)(F)F)CC1
kinase still bound, per cent of control (%): 100
--
molSmiles: Cc1cc([C@@H](C)Nc2ccccc2C(=O)O)c2nc(N3CCOCC3)cc(=O)n2c1
kinase still bound, per cent of control (%): 100
--
molSmiles: O=C1Nc2ccc(I)cc2/C1=C/c1cc(Br)c(O)c(Br)c1
kinase still bound, per cent of control (%): 95
--
molSmiles: COc1cc(N2CCN(C)CC2)ccc1Nc1nc(N)c(C(=O)c2c(Cl)cccc2Cl)s1
kinase still bound, per cent of control (%): 89
--
molSmiles: Cc1ccc(NC(=O)c2cccc(C(C)(C)C#N)c2)cc1Nc1ccc2ncn(C)c(=O)c2c1
kinase still bound, per cent of control (%): 57

----------
- assaySystem: BRSK2 (human) (UniProt Q8IWQ3)
- Sequence (Q8IWQ3 whole entry, looked up): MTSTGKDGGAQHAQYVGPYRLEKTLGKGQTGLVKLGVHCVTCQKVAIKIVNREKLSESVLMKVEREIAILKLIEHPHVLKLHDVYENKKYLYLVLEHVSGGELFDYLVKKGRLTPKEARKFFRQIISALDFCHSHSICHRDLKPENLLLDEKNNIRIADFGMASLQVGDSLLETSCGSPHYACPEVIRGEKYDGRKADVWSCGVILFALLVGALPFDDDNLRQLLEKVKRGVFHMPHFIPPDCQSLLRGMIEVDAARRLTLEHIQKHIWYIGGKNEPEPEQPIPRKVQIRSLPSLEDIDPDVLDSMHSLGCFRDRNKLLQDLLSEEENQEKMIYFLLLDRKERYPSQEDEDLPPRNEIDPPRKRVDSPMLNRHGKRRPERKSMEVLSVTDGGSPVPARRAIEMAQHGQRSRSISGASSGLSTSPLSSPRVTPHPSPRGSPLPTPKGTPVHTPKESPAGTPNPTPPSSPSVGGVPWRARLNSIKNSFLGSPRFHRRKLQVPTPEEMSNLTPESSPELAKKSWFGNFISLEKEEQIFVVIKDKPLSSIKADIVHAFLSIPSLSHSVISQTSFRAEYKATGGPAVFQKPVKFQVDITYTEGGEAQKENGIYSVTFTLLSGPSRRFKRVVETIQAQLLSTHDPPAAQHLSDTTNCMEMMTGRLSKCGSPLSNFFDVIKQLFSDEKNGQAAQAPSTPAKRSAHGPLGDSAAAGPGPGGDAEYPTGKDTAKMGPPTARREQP
- testProtocol: KINOMEscan competition binding
- protocolConditions: compound 10.0 µM
// kinase still bound, per cent of control lookup, one value per entry

compound: O=C(O)c1ccc(Nc2ncc3c(n2)-c2ccc(Cl)cc2C(c2c(F)cccc2F)=NC3)cc1
displayUnit: %
kinase still bound, per cent of control: 100
--
compound: COc1cc(C(=O)NC2CCN(C)CC2)ccc1Nc1ncc2c(n1)N(C1CCCC1)CCC(=O)N2C(C)C
displayUnit: %
kinase still bound, per cent of control: 0
--
compound: O=C(NC1CC1)c1cccc(-c2ccc3c(NC(=O)C4CC4)n[nH]c3c2)c1
displayUnit: %
kinase still bound, per cent of control: 74
--
compound: O=C(NOC[C@H](O)CO)c1ccc(F)c(F)c1Nc1ccc(I)cc1F
displayUnit: %
kinase still bound, per cent of control: 100
--
compound: C=CC(=O)Nc1cccc(Nc2nc(N[C@H]3CC[C@H](N(C)C)CC3)nc3c2ncn3C(C)C)c1
displayUnit: %
kinase still bound, per cent of control: 100
--
compound: N#Cc1c(NC(=O)c2cccc3ccccc23)sc2c1CCCC2
displayUnit: %
kinase still bound, per cent of control: 100
--
compound: C=CC(=O)Nc1cc(NC(=O)c2ccc(C)c(NC(=O)c3ccno3)c2)cc(C(F)(F)F)c1
displayUnit: %
kinase still bound, per cent of control: 100
--
compound: COc1cc(N2CCN(C)CC2)ccc1Nc1nc(N)c(C(=O)c2c(Cl)cccc2Cl)s1
displayUnit: %
kinase still bound, per cent of control: 87
--
compound: CC[C@@H]1C(=O)N(C)c2cnc(Nc3ccc(C(=O)NC4CCN(C)CC4)cc3OC)nc2N1C1CCCC1
displayUnit: %
kinase still bound, per cent of control: 100
--
compound: C=CC(=O)Nc1cccc(Oc2nc(Nc3ccc(N4CCN(C)CC4)cc3OC)ncc2Cl)c1
displayUnit: %
kinase still bound, per cent of control: 100
--
compound: CCCS(=O)(=O)Nc1ccc(F)c(C(=O)c2c[nH]c3ncc(-c4ccc(Cl)cc4)cc23)c1F
displayUnit: %
kinase still bound, per cent of control: 100
--
compound: Nc1ccc(-c2ccc3ncc4ccc(=O)n(-c5cccc(C(F)(F)F)c5)c4c3c2)cn1
displayUnit: %
kinase still bound, per cent of control: 100
--
compound: C[C@@H](Oc1cc(-n2cnc3ccc(CN4CCN(C)CC4)cc32)sc1C(N)=O)c1ccccc1C(F)(F)F
displayUnit: %
kinase still bound, per cent of control: 52
--
compound: Cc1ccc2nc(NCCN)c3ncc(C)n3c2c1
displayUnit: %
kinase still bound, per cent of control: 100
--
compound: COc1cc(C(=O)NC2CCN(C)CC2)ccc1Nc1ncc2c(n1)N(C1CCCC1)C(C)CC(=O)N2C (centres undefined)
displayUnit: %
kinase still bound, per cent of control: 100
--
compound: Cc1ccc(C(=O)Nc2cccc(C(F)(F)F)c2)cc1Nc1cncc(C(N)=O)c1
displayUnit: %
kinase still bound, per cent of control: 100
--
compound: CCC(=O)N1CCN(c2ccc(-n3c(=O)ccc4cnc5ccc(-c6cnc7ccccc7c6)cc5c43)cc2C(F)(F)F)CC1
displayUnit: %
kinase still bound, per cent of control: 76
--
compound: O=C1Nc2ccc(I)cc2/C1=C/c1cc(Br)c(O)c(Br)c1
displayUnit: %
kinase still bound, per cent of control: 100
--
compound: CN(C)C/C=C/C(=O)Nc1cccc(Nc2ncc3c(n2)N(C)c2ccccc2C(=O)N3C)c1
displayUnit: %
kinase still bound, per cent of control: 4.2
